Assign pKd to each entry below.
- measuredTarget: T1, PTRAMP–CSS heterodimer (disulfide-linked PfPTRAMP 42–309 and PfCSS 20–290) (P. falciparum)
- T1 chain 1: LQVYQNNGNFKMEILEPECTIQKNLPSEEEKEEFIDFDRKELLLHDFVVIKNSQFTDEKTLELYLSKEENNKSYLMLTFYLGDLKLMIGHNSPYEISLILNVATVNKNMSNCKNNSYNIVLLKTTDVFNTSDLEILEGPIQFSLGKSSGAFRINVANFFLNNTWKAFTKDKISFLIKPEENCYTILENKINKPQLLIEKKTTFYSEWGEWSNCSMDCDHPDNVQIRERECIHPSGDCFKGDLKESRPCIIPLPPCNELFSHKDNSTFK
- T1 chain 2: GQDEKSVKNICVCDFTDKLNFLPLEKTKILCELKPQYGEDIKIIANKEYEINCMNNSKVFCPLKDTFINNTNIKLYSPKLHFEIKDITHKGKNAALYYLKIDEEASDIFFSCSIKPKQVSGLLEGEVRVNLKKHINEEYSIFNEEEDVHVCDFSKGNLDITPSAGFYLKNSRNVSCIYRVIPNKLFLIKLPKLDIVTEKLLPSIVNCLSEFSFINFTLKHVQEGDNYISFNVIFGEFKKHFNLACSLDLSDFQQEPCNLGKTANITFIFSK
- methodNotes: BLI
Bear in mind: pKd is minus log10 of a mol/L concentration; give just that figure.

Documented pKd of anti-PfCSS nanobody D1 (VHH) VHH: QVQLQESGGGLVQAGGSLRLSCAASGRTFSSLAMGWFRQPPGKEREFVAAISYSSGSTYYADSVKGRFTISRDNAKNTVYLQMNSLKPEDTAVYYCAVTPPDTYISTMGHEYDYWGQGTQVTVSS : 8.05

The recorded pKd for anti-PfCSS nanobody C10 (VHH) VHH: QVQLQESGGGLVQAGGSLRLSCVASGRTFSNDAMGWFRQAPGKEREFVAAATRNGLGTGYADSVKGRFTISRDNAKNTVYLQMNSLKPEDTAVYYCAAASDAYYSNQRAAYDYWGQGTQVTVSS is 7.92

Looking up anti-PfCSS nanobody B6 (VHH) VHH: QVQLQESGGGLVQAGGSLRLSCAASGRTFSRYAMGWFRQAPGKEREFVAAISWSGGSTTYADSVKGRFTISRDNAKNTVYLQMNSLKPEDTAVYYCAAGDFIIGNMASEYEYWGQGTQVTVSS , I see its pKd listed as 8.60

Input anti-PfPTRAMP nanobody H10 (VHH) VHH: QVQLQESGGGLVQPGGSLRLSCAASGFTFDNYWMYWVRQAPGKGLEWVSAINTVGSHTYYADSVKGRFTISRDNAKNTLYLQMNSLKSEDTAVYYCAKGPWGFGTSGWGEMDYWGKGTQVTVSS . Output pKd: 6.41
